- System: CCRIS mutagenicity, Ames/micronucleus/aberration tests
- experimentSummary: CCRIS mutagenicity studies
- conditionDetails: Test System: AMES SALMONELLA TYPHIMURIUM; Strain/Indicator: TA1538; Metabolic Activation: HAMSTER, LIVER, S-9, AROCLOR 1254; Method: STANDARD PLATE
Calls of active or inactive are those of the source. How the calls were made is not given here.
// classify into active, inactive

>>> cat("CCN(N=O)c1ccccc1")
"inactive"
>>> cat("CCCCC(CC)COC(=O)c1ccc(N(C)C)c([N+](=O)[O-])c1 (stereo not drawn)")
"active"
>>> cat("CC(C)C1=CC2=CC[C@@H]3[C@](C)(CCC[C@@]3(C)C(=O)O)[C@H]2CC1")
"inactive"

## Input How did this test come out for N#Cc1ccccc1 ?
## Output inactive

====

- Tested on: CCRIS mutagenicity, Ames/micronucleus/aberration tests
- experimentSummary: CCRIS mutagenicity studies
- conditionDetails: Test System: AMES SALMONELLA TYPHIMURIUM; Strain/Indicator: TA100; Metabolic Activation: RAT, LIVER, S-9, PHENOBARBITAL AND 5,6-BENZOFLAVONE; Method: PREINCUBATION
Calls of active or inactive are those of the source. No rule for the calls is given here.
// classify into active, inactive

>>> cat("O=c1ccc(=O)c2c(=O)c(Cl)c(Cl)c(=O)c1=2")
"inactive"
>>> cat("c1ccc2ncccc2c1")
"active"
>>> cat("CC(=O)N[C@@H]1[C@@H](O[C@@H]2O[C@H](C(=O)O)[C@@H](O[C@@H]3O[C@H](CO)[C@@H](O)[C@H](O[C@@H]4O[C@H](C(=O)O)[C@@H](O)[C@H](O)[C@H]4O)[C@H]3NC(C)=O)[C@H](O)[C@H]2O)[C@H](O)[C@@H](CO)O[C@H]1O")
"inactive"
>>> cat("CC1=CC(=O)C(C(C)C)=CC1=O")
"inactive"
>>> cat("CC(=O)c1cccc(N=[N+]([O-])c2ccc(N)c(C(C)=O)c2C)c1C")
"inactive"

## Input How did this test come out for CC(C)(N=NC(C)(C)C(=N)N)C(=N)N ?
## Output active

====

- Tested on: CCRIS mutagenicity, Ames/micronucleus/aberration tests
- experimentSummary: CCRIS mutagenicity studies
- conditionDetails: Test System: AMES SALMONELLA TYPHIMURIUM; Strain/Indicator: TA1535; Metabolic Activation: HAMSTER, LIVER, S-9, AROCLOR 1254 (10%); Method: PREINCUBATION
- Text: The CCRIS database contains chemical records with carcinogenicity, mutagenicity, tumor promotion, and tumor inhibition test results. It was developed by the National Cancer Institute (NCI). Data are derived from studies cited in primary journals, current awareness tools, NCI reports, and other sources. Test results have been reviewed by experts in carcinogenesis and mutagenesis. CCRIS provides historical information from the years 1985 - 2011. It is no longer updated. […]
Active and inactive are the calls of the source. No rule for the calls is given here.
// classify into 1.0 (active), 0.0 (inactive)

Sample answers from the record:
>>> cat("CCC(C)Nc1ccc(NC(C)CC)cc1 (stereo not drawn)")
0.0
>>> cat("CCN(CC)CCCC(C)Nc1c2ccc(Cl)cc2nc2ccc(OC)cc12 (stereo not drawn)")
0.0

## Input How did this test come out for C=C(C)C(=O)OCCC ?
## Output 0.0

## Input How did this test come out for CN(C)CCN(Cc1ccc(Cl)s1)c1ccccn1 ?
## Output 0.0

## Input How did this test come out for O=C(O)CS ?
## Output 0.0

## Input How did this test come out for CN(C)CCN(C)C ?
## Output 0.0

## Input How did this test come out for NCCCN ?
## Output 0.0

## Input How did this test come out for O=C/C=C/c1ccco1 ?
## Output 0.0
